Just for reference, patent US4415574A is where these values come from.

# PROTOCOL_NOTES: in vivo
# SETUP_CONDITIONS: mouse, po, read-out: LD 50 by mouth

# MOLECULE, LD50
records = [
    ("COc1cc(Cc2cnc(NC(c3ccc4c(c3)OCO4)S(=O)(=O)O)nc2N)cc(OC)c1OC (stereo not shown)", "> 12000 mg/kg"),
    ("CCOc1cc(C(Nc2ncc(Cc3cc(OC)c(OC)c(OC)c3)c(N)n2)S(=O)(=O)O)ccc1O (stereo not shown) [Example 24f]", "> 12000 mg/kg"),
    ("COc1ccccc1C(Nc1ncc(Cc2cc(OC)c(OC)c(OC)c2)c(N)n1)S(=O)(=O)O (stereo not shown)", "> 12000 mg/kg"),
    ("COc1cc(Cc2cnc(NC(c3ccco3)S(=O)(=O)O)nc2N)cc(OC)c1OC (stereo not shown)", "> 12500 mg/kg"),
]

---

# Test system: COLI
# PROTOCOL_NOTES: Inhibiting minimum concentration (I.M.C.), activity relative to trimethoprime, MULLER HINTON COLI MEDIUM 4
# Type: cell-based
# SETUP_CONDITIONS: ratio of I.M.C. to trimethoprime
Under this convention, y denotes % activity with respect to the base strictly below 20% and n denotes % activity with respect to the base at or above 20%.

# MOLECULE, CLASS
rows = [
    ("CCCC(Nc1ncc(Cc2cc(OC)c(OC)c(OC)c2)c(N)n1)S(=O)(=O)O (centres unmarked)", "y"),
    ("CCOc1cc(C(Nc2ncc(Cc3cc(OC)c(OC)c(OC)c3)c(N)n2)S(=O)(=O)O)ccc1O (centres unmarked) [Example 24d]", "n"),
    ("COc1cc(Cc2cnc(NC(C(C)C)S(=O)(=O)O)nc2N)cc(OC)c1OC (centres unmarked)", "y"),
    ("COc1cc(Cc2cnc(NC(c3ccccc3O)S(=O)(=O)O)nc2N)cc(OC)c1OC (centres unmarked) [Example 25e]", "n"),
    ("COc1cc(Cc2cnc(NC(c3ccc(Cl)cc3)S(=O)(=O)O)nc2N)cc(OC)c1OC (centres unmarked)", "y"),
    ("COc1cc(Cc2cnc(NC(c3cc(OC)c(OC)c(OC)c3)S(=O)(=O)O)nc2N)cc(OC)c1OC (centres unmarked)", "n"),
    ("COc1cc(Cc2cnc(NC(c3ccccc3O)S(=O)(=O)O)nc2N)cc(OC)c1OC (centres unmarked) [Example 25f]", "n"),
    ("CCOc1cc(C(Nc2ncc(Cc3cc(OC)c(OC)c(OC)c3)c(N)n2)S(=O)(=O)O)ccc1O (centres unmarked) [Example 24b]", "n"),
    ("COc1ccccc1C(Nc1ncc(Cc2cc(OC)c(OC)c(OC)c2)c(N)n1)S(=O)(=O)O (centres unmarked)", "n"),
    ("COc1cc(Cc2cnc(NC(c3ccccc3[N+](=O)[O-])S(=O)(=O)O)nc2N)cc(OC)c1OC (centres unmarked)", "y"),
    ("COc1cc(C(Nc2ncc(Cc3cc(OC)c(OC)c(OC)c3)c(N)n2)S(=O)(=O)O)ccc1O (centres unmarked)", "n"),
    ("COc1cc(Cc2cnc(NC(c3ccco3)S(=O)(=O)O)nc2N)cc(OC)c1OC (centres unmarked)", "n"),
    ("COc1cc(Cc2cnc(NC(c3ccc([N+](=O)[O-])cc3)S(=O)(=O)O)nc2N)cc(OC)c1OC (centres unmarked)", "y"),
    ("COc1cc(Cc2cnc(NC(c3ccccc3O)S(=O)(=O)O)nc2N)cc(OC)c1OC (centres unmarked) [Example 25d]", "n"),
    ("CCC(CC)C(Nc1ncc(Cc2cc(OC)c(OC)c(OC)c2)c(N)n1)S(=O)(=O)O (centres unmarked)", "y"),
    ("COc1cc(Cc2cnc(NC(c3ccc4c(c3)OCO4)S(=O)(=O)O)nc2N)cc(OC)c1OC (centres unmarked)", "y"),
    ("COc1cc(Cc2cnc(NC(c3cccs3)S(=O)(=O)O)nc2N)cc(OC)c1OC (centres unmarked)", "n"),
    ("COc1cc(Cc2cnc(NC(c3cccc([N+](=O)[O-])c3)S(=O)(=O)O)nc2N)cc(OC)c1OC (centres unmarked)", "y"),
    ("COc1cc(Cc2cnc(NC(C(C)(C)C)S(=O)(=O)O)nc2N)cc(OC)c1OC (centres unmarked)", "n"),
    ("COc1cccc(C(Nc2ncc(Cc3cc(OC)c(OC)c(OC)c3)c(N)n2)S(=O)(=O)O)c1 (centres unmarked)", "y"),
    ("COc1cc(Cc2cnc(NC(C)S(=O)(=O)O)nc2N)cc(OC)c1OC (centres unmarked)", "y"),
    ("COc1cc(Cc2cnc(NCS(=O)(=O)O)nc2N)cc(OC)c1OC", "y"),
    ("COc1cc(Cc2cnc(NC(c3cccc(Cl)c3)S(=O)(=O)O)nc2N)cc(OC)c1OC (centres unmarked)", "y"),
]
